- testDetails: chemical genetic growth profiling, strain panel (AID 1159580);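 also: tested at 20 µM; growth read once vehicle control cultures reached saturation at 30 °C; 1 = growth at the plate median or of vehicle wells; lower values mean less growth of the strain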
- measurementContext: S. cerevisiae deletion strains, growth OD, locus YKL085W, strain MDH1 (second series), hits give low values
In all, about 5,500 compounds went through this assay and about 2,000 (36%) were called active. Inconclusive results (about 18%) are left out. This is one part of the list.
readout: normalized growth
Keep it simple and answer with nothing but the number.

Please review the entries below; each comes with its answer.
molecule="NC(=O)NC1NC(=O)NC1=O (configuration not stated)" readout="normalized growth" measvalue=0.981
molecule="CC1(C)C(=O)[C@@H]2O[C@@H]2[C@@]2(C)C1C[C@@H](O)[C@]1(C)C2CC[C@@]2(C)[C@H](c3ccoc3)OC(=O)C3OC321 (some centres not stated)" readout="normalized growth" measvalue=0.997
molecule="COC(=O)[C@@H]1OC(=O)C2OC23[C@@]1(C)CCC1[C@@]2(C)CCC(=O)C(C)(C)C2C[C@@H](OC(C)=O)[C@]13C (some centres not stated)" readout="normalized growth" measvalue=0.994
molecule="CC(=O)O[C@@H]1CC2C(C)(C)[C@@H](O)CC[C@]2(C)C2CC[C@@]3(C)[C@H](c4ccoc4)OC(=O)[C@H]4O[C@]43[C@@]21C (some centres not stated)" readout="normalized growth" measvalue=1
molecule="CC(=O)O[C@@H]1CC2C(C)(C)[C@H](O)CC[C@]2(C)C2CC[C@@]3(C)[C@H](c4ccoc4)OC(=O)[C@H]4O[C@]43[C@@]21C (some centres not stated)" readout="normalized growth" measvalue=1.01

-- ask Look up normalized growth of "Cc1cc(CC(=O)O)n(C)c1C(=O)c1ccc(Cl)cc1" and report it.
-- reply 0.994

-- ask Look up normalized growth of CCN1C[C@@]2(COC)C3[C@@H](OC)[C@H]4[C@@H]1[C@]3(C(OC)C[C@H]2O)C1C[C@@]2(O)[C@H](OC(=O)c3ccccc3)C1[C@]4(OC(C)=O)[C@@H](O)[C@@H]2OC (some centres not stated) and report it.
-- reply 1.03

* * *

- testDetails: chemical genetic growth profiling, strain panel (AID 1159580)
- measurementContext: S. cerevisiae deletion strains, growth OD, locus YER015W, strain faa2, hits give low values
Screen size: about 5,500 compounds; about 2,000 (36%) were called active. Roughly 18% stayed inconclusive and do not appear here. The list shows a part of the results.
Rule: normalized growth below 1 gives true. Equal to or above 1 gives false.

Take a look at these entries with their results.
compound=Cc1cc(/C=C/c2ccc3cc(N(C)C)ccc3[n+]2C)c(C)n1-c1ccccc1 classname=true
compound="CC(=O)O[C@H]1C[C@@]2(C)[C@@H](C[C@@H](O)C3[C@]2(C)CC[C@H]2[C@H](C)[C@H](O)CC[C@]32C)/C1=C(/CCC=C(C)C)C(=O)O (stereo partly specified)" classname=false
compound="CC(=O)C1CCC2C3CCC4C[C@H](O)CCC4(C)C3C[C@H](O)C12C (stereo partly specified)" classname=true
compound=COc1c(C)c2c(c(O)c1C/C=C(\C)CCC(=O)O)C(=O)OC2 classname=true
compound=Cc1cc(CC(=O)O)n(C)c1C(=O)c1ccc(Cl)cc1 classname=false
compound="CC1CCC(NC(=O)N(CCCl)N=O)CC1 (stereo unspecified)" classname=true
compound="CC1[C@H](C)OC(=O)CC(O)CC(O)CC(O)CCC(O)C(O)C[C@]2(O)CC(O)C(C(=O)O)C(CC(OC3O[C@H](C)[C@@H](O)[C@H](N)[C@@H]3O)/C=C/C=C/C=C/C=C/CC/C=C/C=C/[C@H](C)[C@H]1O)O2 (stereo partly specified)" classname=true

# input for lookup
-- ask API: query returns whether the compound falls strictly under 1 in normalized growth. Query: "NC1(C(=O)O)CC1"
-- reply false

* * *

- testDetails: chemical genetic growth profiling, strain panel (AID 1159580)
- measurementContext: S. cerevisiae deletion strains, growth OD, locus YPR163C, strain tif3, hits give low values
About 2,000 (36%) of roughly 5,500 compounds were called active. Inconclusive results (about 18%) are left out. The list shows a part of the results. Where a SMILES comes first, the peptide text is derived from it.
readout: normalized growth
Keep it simple and answer with nothing but the number.

compound="CC(=O)OCC(=O)[C@@]1(O)CCC2C3CCC4=CC(=O)C=CC4(C)C3[C@@H](O)C[C@@]21C (some centres undefined)" measvalue=1.02
compound=c1ccc2c(CC3=NCCN3)cccc2c1 measvalue=1.02

-- ask Look up normalized growth of C[C@]12CCC3c4ccc(OC(=O)c5ccccc5)cc4CCC3C1CCC2=O (some centres undefined) and report it.
-- reply 1

-- ask Look up normalized growth of NCC[C@@H](O)C(=O)N[C@@H]1C[C@H](N)[C@@H](O[C@H]2O[C@H](CN)[C@@H](O)[C@H](O)[C@H]2O)[C@H](O)[C@H]1O[C@H]1O[C@H](CO)[C@@H](O)[C@H](N)C1O (some centres undefined) and report it.
-- reply 1.02

-- ask Look up normalized growth of "NCCCCNCCCN" and report it.
-- reply 0.984

-- ask Look up normalized growth of "O=C(O)CCCCCCCC(=O)O" and report it.
-- reply 0.987

-- ask Look up normalized growth of CC(=O)N[C@@H](CC(=O)O)C(=O)N[C@@H](CCC(=O)O)C(=O)O (Ac-Asp-Glu-OH) and report it.
-- reply 0.99

* * *

- testDetails: chemical genetic growth profiling, strain panel (AID 1159580)
- measurementContext: S. cerevisiae deletion strains, growth OD, locus YCL061C, strain MRC1 (second series), hits give low values
The campaign covered roughly 5,500 compounds. About 2,000 (36%) were called active. Another 18% or so got no clear call; they are omitted. Some of the results follow.
readout: normalized growth
Keep it simple and answer with nothing but the number.

molecule="COc1cc2nc(N3CCN(C(=O)OCc4ccccc4)C(C(=O)NC(C)(C)C)C3)nc(N)c2cc1OC (stereo not drawn)" readout="normalized growth" measvalue=0.984
molecule="Clc1ccc(C(c2ccccc2Cl)C(Cl)Cl)cc1 (stereo not drawn)" readout="normalized growth" measvalue=1.01

Proceed to the following item.
-- ask Look up normalized growth of CN1CCCC1CCOC(C)(c1ccccc1)c1ccc(Cl)cc1 (stereo not drawn) and report it.
-- reply 0.982

* * *

- testDetails: chemical genetic growth profiling, strain panel (AID 1159580);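 also: tested at 20 µM; growth read once vehicle control cultures reached saturation at 30 °C; 1 = growth at the plate median or of vehicle wells; lower values mean less growth of the strain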
- measurementContext: S. cerevisiae deletion strains, growth OD, locus YMR277W, strain FCP1, hits give low values
The whole screen tested about 5,500 compounds, of which about 2,000 (36%) were called active. Another 18% or so got no clear call; they are omitted. This is one part of the list.
Measured normalized growth accompanies every entry in the list below.
Keep it simple and answer with nothing but the number.

compound=COc1ccc(-c2cn3cc(C)ccc3n2)cc1 measvalue=0.979
compound=O=S(=O)(Nc1csc(C(F)(F)F)c1-c1ccccc1)c1cc(Br)c(Br)s1 measvalue=0.968
compound=O=S(=O)(NCc1cc(Cl)cc(Cl)c1)c1cc(C(F)(F)F)cc(C(F)(F)F)c1 measvalue=0.996
compound=Cc1noc(C)c1S(=O)(=O)Nc1csc(C(F)(F)F)c1-c1ccccc1 measvalue=0.98
compound="CC1C(c2ccccc2)N(C)C(c2ccccc2)CC1(O)c1ccc(F)cc1 (stereo unspecified)" measvalue=0.997

Proceed to the following item.
-- ask Look up normalized growth of "O=C(Nc1cc(Cl)ccc1O)c1ccccc1CSc1ccc(Cl)cc1" and report it.
-- reply 0.983

* * *

- testDetails: chemical genetic growth profiling, strain panel (AID 1159580);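 also: tested at 20 µM; growth read once vehicle control cultures reached saturation at 30 °C; 1 = growth at the plate median or of vehicle wells; lower values mean less growth of the strain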
- measurementContext: S. cerevisiae deletion strains, growth OD, locus YJL154C, strain vps35, hits give low values
The whole screen tested about 5,500 compounds, of which about 2,000 (36%) were called active. About 18% were inconclusive and are not listed. The list shows a part of the results.
readout: normalized growth
Keep it simple and answer with nothing but the number.

molecule="COC(=O)/C(C)=C\\CC12OC(C)(C)C3CC(C=C4C(=O)c5c(OC)c6c(c(CC=C(C)C)c5OC431)OC(C)(CCC=C(C)C)C=C6)C2=O (configuration not stated)" readout="normalized growth" measvalue=1.02

Proceed to the following item.
-- ask Look up normalized growth of CC(=O)OCC(=O)[C@@]1(O)CCC2C3CCC4=CC(=O)C=CC4(C)C3[C@@H](O)C[C@@]21C (some centres not stated) and report it.
-- reply 0.996

* * *

- testDetails: chemical genetic growth profiling, strain panel (AID 1159580);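 also: tested at 20 µM; growth read once vehicle control cultures reached saturation at 30 °C; 1 = growth at the plate median or of vehicle wells; lower values mean less growth of the strain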
- measurementContext: S. cerevisiae deletion strains, growth OD, locus YOR290C, strain snf2, hits give low values
Screen size: about 5,500 compounds; about 2,000 (36%) were called active. Another 18% or so got no clear call; they are omitted. The list shows a part of the results.
readout: normalized growth
Keep it simple and answer with nothing but the number.

Please review the entries below; each comes with its answer.
compound="CC(=O)OCC(=O)[C@@]1(O)CCC2C3CCC4=CC(=O)C=CC4(C)C3[C@@H](O)C[C@@]21C (stereo not given in full)" measvalue=1.01
compound=NC(N)=NCCN1CCCCCCC1 measvalue=0.981

-- ask Look up normalized growth of "Cc1nnc(NS(=O)(=O)c2ccc(N)cc2)s1" and report it.
-- reply 1

-- ask Look up normalized growth of "Nc1nc(F)nc2c1ncn2[C@@H]1O[C@H](COP(=O)(O)O)[C@@H](O)[C@@H]1O" and report it.
-- reply 0.979

-- ask Look up normalized growth of "Cc1onc(-c2ccccc2)c1-c1ccc(S(N)(=O)=O)cc1" and report it.
-- reply 1.01
